- Target or test system: Matrix metalloproteinase-14 (Homo sapiens) (UniProt P50281)
- Assay comment: blockers of MT1-MMP proenzyme processing, primary screen, HT1080 RFP-PRO-GFP cells, GFP/RFP fluorescence (AID 651647)
- Condition description: overnight, at 20 µM, stronger effect = higher value, percent of plate control window, DMSO zero
The campaign covered roughly 360,000 compounds. About 220 (0.061%) were called active. What follows is part of a selection rich in actives, with near analogues and random picks from the rest.
Quantity measured: GFP/RFP ratio change (%)
Give bare numbers, in %.

>>> print(df.to_string())
                                   compound                     target_or_test_system     quantity_measured  u  numeric_readout
0  CC1CCCCC12NC(=O)N(CC(=O)OCc1c(F)cccc1Cl)C2=O (configuration not stated)  Matrix metalloproteinase-14 (Homo sapiens) (UniProt P50281)  GFP/RFP ratio change  %           -0.886
1  CC(Sc1nc2cc(Cl)ccc2s1)C(=O)Nc1ccc2c(c1)OCO2 (configuration not stated)  Matrix metalloproteinase-14 (Homo sapiens) (UniProt P50281)  GFP/RFP ratio change  %             3.37
2         CCc1nonc1NC(=O)c1oc2ccc(Cl)cc2c1C  Matrix metalloproteinase-14 (Homo sapiens) (UniProt P50281)  GFP/RFP ratio change  %             3.45
3  O=C(c1cc(Cl)cc(Cl)c1)N1CCC(=O)N(C(COCc2ccccc2)Cc2ccccc2)CC1 (configuration not stated)  Matrix metalloproteinase-14 (Homo sapiens) (UniProt P50281)  GFP/RFP ratio change  %            -5.95
4  COc1ccc(-c2cc(NC(C)=O)c3ncc(-c4cc(OC)c(OC)c(OC)c4)n3c2)cn1  Matrix metalloproteinase-14 (Homo sapiens) (UniProt P50281)  GFP/RFP ratio change  %            -4.94

Kindly give each listed record's GFP/RFP ratio change.
1. CCc1ccnc(NS(=O)(=O)c2ccc3c(c2)OCCO3)c1
2. CC1(C)CC(=O)NC=C(c2ccccc2)C1
3. C=CCn1nc(C(=O)OCC)cc1-c1sc(NC(=O)c2ccccc2)nc1C

Outgoing:
[3.33, 0.817, -9.54]

Hey, just so you know, these numbers are from PubChem BioAssay AID651647.
